molecular target: Chromo domain-containing protein 1 (Saccharomyces cerevisiae (strain ATCC 204508 / S288c) (Baker's yeast)); assay: ScCHD-1 Enzyme Inhibition Assay; type: functional; design: scale not given: in the data most compounds retested in dose-response had high values; settings: 30 µM
readout.kind: Percent Effect (%)
Number only, in %; omit the unit.

Examples with their reported Percent Effect follow.
CCn1cnnc1CNC(=O)N1CCN(c2cccs2)CC1 :: -5.95
COCCO[C@@H]1C[C@H]2CN(C(=O)c3cnccn3)CCN2C1 :: -3.81
O=C(NCCN1CCCCCC1=O)c1ccn(-c2ccc(F)cc2)n1 :: -5.87
Cc1ccc(OCCC(=O)NC2CCc3nc(C)cn3C2)cc1 (configuration not stated) :: -1.61
CN1CCN(C(=O)Cc2cccc(F)c2)Cc2cccnc21 :: -6.06

Percent Effect measured on `Cn1ccc(C(=O)NC2CCN(c3ncccn3)CC2)cc1=O` = -9.93

* * *

species: Homo sapiens; test: To identify inhibition of the IFN signalling (Jak-Stat) pathway via expression of an eGFP reporter gene under the control of an IFN-stimulated response element (ISRE) containing MxA promoter.; type: functional; set-up: scale not given: direction of the effect not stated beside the values; conditions: 30 µM
readout.kind: Percent Effect (%)
Number only, in %; omit the unit.

Percent Effect measured on `Cc1cccnc1NCCNC(=O)[C@H]1CNC[C@@H](C(=O)N2CCCC2)C1` = -27.6

Percent Effect measured on Cc1nc(CN2CCC(N(C)Cc3noc(C(C)C)n3)C2)cs1 (configuration not stated) = 26

Percent Effect measured on Cc1nc(C2CCCN(C(=O)C(C)(C)n3cc(Cl)cn3)C2)no1 (configuration not stated) = -9.61

Percent Effect measured on `Cc1nc(COC[C@@H]2CC[C@H]3[C@H](CCN3S(C)(=O)=O)O2)cs1` = 8.05

Percent Effect measured on `O=C(NCc1csc(Br)c1)c1ccncc1` = 21.8

Percent Effect measured on CCN1CCOC(CNCc2ccccc2OCc2ccccn2)C1 (configuration not stated) = 9.07

Percent Effect measured on `O=c1cc2c(nn1CN1CCN(c3cccc(Cl)c3)CC1)CCC2` = 4.05

Percent Effect measured on `Cc1ccc(CNC(=O)NCc2csc(C)n2)cn1` = 0.522

Percent Effect measured on `O=C(c1ccncc1F)N1CCN(CC2CC2)c2ncccc2C1` = -11

Percent Effect measured on `COc1ccc(C2(NC(=O)CCn3cncn3)CCCCC2)cc1` = -2

Percent Effect measured on O=C(NCCNC(=O)N1CCC(c2ccccc2)C1)C1CC1 (configuration not stated) = 8.1

Percent Effect measured on O=c1[nH]c2c(c(=O)n1C1CCCCC1)CCC2NCCc1ccccc1 (configuration not stated) = -14.6

* * *

organism: Homo sapiens; test: To identify inhibition of the IFN signalling (Jak-Stat) pathway via expression of an eGFP reporter gene under the control of an IFN-stimulated response element (ISRE) containing MxA promoter.; format: functional; design: scale not given: direction of the effect not stated beside the values; details: 30 µM
readout.kind: Percent Effect (%)
Number only, in %; omit the unit.

Cc1cnn(CC(C)NCc2nc(-c3ccco3)no2)c1 (centres undefined) :: 4.8
CN(Cc1ccsc1)C(=O)CN1CCCC1Cn1cccn1 (centres undefined) :: -6.97
CCc1nc(C)c(C(=O)NCCNc2ncccn2)s1 :: -2.51
COc1ccc(NC(=O)N2CCN(c3ncccn3)CC2)cn1 :: 11.7

Percent Effect measured on `CCn1c(C(=O)N2CCN(C(=O)NC(C)C)CC2)cc2ccccc21` = 14.7

* * *

The compounds listed here are annotated with their Percent Effect.
Biological target: Arginase-2, mitochondrial (Homo sapiens)
Sequence (whole entry): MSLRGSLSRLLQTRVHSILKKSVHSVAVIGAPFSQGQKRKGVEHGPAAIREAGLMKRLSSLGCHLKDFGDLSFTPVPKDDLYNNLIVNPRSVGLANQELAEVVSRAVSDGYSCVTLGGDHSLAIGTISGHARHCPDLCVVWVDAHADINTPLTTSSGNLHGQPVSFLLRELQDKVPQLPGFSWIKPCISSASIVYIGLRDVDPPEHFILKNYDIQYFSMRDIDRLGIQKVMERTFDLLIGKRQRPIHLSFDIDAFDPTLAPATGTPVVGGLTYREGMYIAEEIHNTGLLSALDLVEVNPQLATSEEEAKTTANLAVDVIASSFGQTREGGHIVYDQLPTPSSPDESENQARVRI
Assay: in vitro enzyme assay to detect the production of urea directly proportional to the activity of Arginase II; note: in the data most compounds retested in dose-response had high values
Assay type: functional
Parameters: scale not given: direction of the effect not stated beside the values
Conditions: 33.3 µM
Number only, in %; omit the unit.

Examples with their reported Percent Effect follow.
CCOCCn1nc(C)cc1C(=O)N1CCN(C(C)C)C(CC)C1 (configuration not stated) :: -1.43
CN(C)C(=O)N1C[C@@H]2COC[C@]2(CNS(C)(=O)=O)C1 :: 2.87
CCOc1cc(C(=O)N2CCCC(c3cc(C(N)=O)[nH]n3)C2)ccn1 (configuration not stated) :: 0
Cc1cnn(C2CCCN(C(=O)CCc3nccs3)C2)c1 (configuration not stated) :: 1.2
Cc1cc(C)cc(-c2ccc(CC3(C(=O)O)CCOCC3)cc2)c1 :: -3.48
Cc1cc(-c2cnc(NCc3cccnc3)nc2C(C)C)on1 :: -2.1

Percent Effect measured on `CCc1ccc(NS(=O)(=O)CC2=NC(=O)n3cccc3C2=O)cc1` = -7.57

Percent Effect measured on Cc1cnn(CC2CCCN2C(=O)CCc2nc3ccccc3[nH]2)c1 (configuration not stated) = 0.38

* * *

molecular target: Tyrosyl-tRNA synthetase, putative (Trypanosoma cruzi (strain CL Brener)) (UniProt Q4DSP6); assay: Trypanosoma cruzi tyrosyl tRNA synthetase (TcYRS) SOP; assay type: functional; parameters: scale not given: direction of the effect not stated beside the values; details: 30 µM
readout.kind: Percent Effect (%)
Number only, in %; omit the unit.

CCCC(C)(C)NC(=O)c1ccc(CC2CC(=O)NC2=O)cc1 (stereo unspecified) :: 10
O=C(O)c1ccc(F)c(S(=O)(=O)Nc2ccc(-n3cccn3)c(Cl)c2)c1 :: 1.24
O=C(c1cccnc1)N1CC[C@H](OCC2CC2)[C@@H]1Cc1cccnc1 :: -10

Percent Effect measured on `Cc1ccccc1[C@@H]1CN(C(=O)c2ccc3[nH]nnc3c2)C[C@H]1C(=O)O` = 3.7

Percent Effect measured on `CC(C)NC(=O)[C@@H]1C[C@H](N)CN1C(=O)c1cc2c([nH]c1=O)CCCC2` = 7.69

Percent Effect measured on `CNS(=O)(=O)Cc1ccc(CNC(=O)Nc2cccnc2)cc1` = 16.5

Percent Effect measured on COc1ccc(C(=O)N2CCCC2c2ccco2)cc1OC (stereo unspecified) = 8.97

Percent Effect measured on `CC(=O)N1CCC(C(=O)c2cc(C)cnc2N)CC1` = 11.5

* * *

The molecules listed here are annotated with their Percent Effect.
biological target: Ubiquitin-activating enzyme e1, putative (Leishmania donovani (strain BPK282A1)) (UniProt E9BSI1); assay: Leishmania donovani Ubiquitin Activating Enzyme (LdE1); format: functional; set-up: scale not given: direction of the effect not stated beside the values; details: 30 µM
Sequence (E9BSI1 as listed by the source): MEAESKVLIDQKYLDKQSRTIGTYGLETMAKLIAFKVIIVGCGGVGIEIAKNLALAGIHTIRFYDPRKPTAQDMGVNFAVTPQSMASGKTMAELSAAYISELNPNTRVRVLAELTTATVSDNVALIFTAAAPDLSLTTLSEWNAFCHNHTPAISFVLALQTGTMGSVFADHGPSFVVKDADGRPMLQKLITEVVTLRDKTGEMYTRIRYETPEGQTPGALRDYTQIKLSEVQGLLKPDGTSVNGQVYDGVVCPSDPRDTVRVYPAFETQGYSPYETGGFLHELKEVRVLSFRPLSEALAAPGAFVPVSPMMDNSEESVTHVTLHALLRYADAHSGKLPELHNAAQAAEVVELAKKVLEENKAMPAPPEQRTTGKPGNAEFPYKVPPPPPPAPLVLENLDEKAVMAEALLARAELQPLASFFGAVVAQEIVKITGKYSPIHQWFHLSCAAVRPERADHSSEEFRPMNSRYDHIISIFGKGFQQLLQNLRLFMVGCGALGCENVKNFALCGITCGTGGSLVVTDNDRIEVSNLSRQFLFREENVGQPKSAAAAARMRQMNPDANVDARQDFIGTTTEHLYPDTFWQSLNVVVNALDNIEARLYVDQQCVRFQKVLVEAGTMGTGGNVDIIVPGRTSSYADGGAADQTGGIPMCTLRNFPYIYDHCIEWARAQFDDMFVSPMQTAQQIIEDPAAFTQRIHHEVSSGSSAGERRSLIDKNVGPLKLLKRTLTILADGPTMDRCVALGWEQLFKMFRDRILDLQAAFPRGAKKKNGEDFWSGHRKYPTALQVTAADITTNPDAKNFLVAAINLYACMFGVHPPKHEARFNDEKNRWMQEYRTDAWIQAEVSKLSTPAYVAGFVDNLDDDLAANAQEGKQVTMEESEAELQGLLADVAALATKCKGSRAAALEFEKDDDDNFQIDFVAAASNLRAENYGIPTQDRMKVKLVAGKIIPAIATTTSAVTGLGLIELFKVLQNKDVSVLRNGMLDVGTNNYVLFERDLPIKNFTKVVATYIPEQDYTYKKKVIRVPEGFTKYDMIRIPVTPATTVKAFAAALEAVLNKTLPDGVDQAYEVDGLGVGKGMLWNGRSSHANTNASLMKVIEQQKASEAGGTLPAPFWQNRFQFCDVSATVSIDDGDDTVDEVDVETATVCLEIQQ
Results with a measured potency or affinity are listed apart.
Number only, in %; omit the unit.

CN(CC(N)=O)S(=O)(=O)c1ccc(F)cc1Cl :: -5.48

# input for lookup
Percent Effect measured on Cc1cc(C)n(CC2CN(Cc3nc(-c4ccoc4)no3)CCO2)n1 (stereo unspecified) = 16.2

* * *

organism: Homo sapiens; assay: To identify inhibition of the IFN signalling (Jak-Stat) pathway via expression of an eGFP reporter gene under the control of an IFN-stimulated response element (ISRE) containing MxA promoter.; format: functional; design: scale not given: direction of the effect not stated beside the values; conditions: 30 µM
The compounds listed here are annotated with their Percent Effect.
Number only, in %; omit the unit.

Examples with their reported Percent Effect follow.
Cc1ccc(Cc2cnc(NC(=O)C3CNC(=O)N3)s2)cc1F (stereo unspecified) :: -4.36
COc1ccc(-c2nc(CN3CC(n4nc(C)cc4C)C3)no2)cc1 :: 15.2
Cc1cnn(CC2CN(c3ncnc4ccccc34)CCO2)c1 (stereo unspecified) :: 37.6
O=C(NC1(c2cccc(F)c2)CCOCC1)c1ccccn1 :: 14.4
CCCc1noc(CCC(=O)N2CCCC2c2ccsc2)n1 (stereo unspecified) :: -2.86

# input for lookup
Percent Effect measured on CCN(CC)Cc1ccc(C(=O)N2CCCCC2Cn2cccn2)o1 (stereo unspecified) = 2.84

* * *

Biological target: Tyrosyl-tRNA synthetase, putative (Trypanosoma cruzi (strain CL Brener))
Sequence (whole entry): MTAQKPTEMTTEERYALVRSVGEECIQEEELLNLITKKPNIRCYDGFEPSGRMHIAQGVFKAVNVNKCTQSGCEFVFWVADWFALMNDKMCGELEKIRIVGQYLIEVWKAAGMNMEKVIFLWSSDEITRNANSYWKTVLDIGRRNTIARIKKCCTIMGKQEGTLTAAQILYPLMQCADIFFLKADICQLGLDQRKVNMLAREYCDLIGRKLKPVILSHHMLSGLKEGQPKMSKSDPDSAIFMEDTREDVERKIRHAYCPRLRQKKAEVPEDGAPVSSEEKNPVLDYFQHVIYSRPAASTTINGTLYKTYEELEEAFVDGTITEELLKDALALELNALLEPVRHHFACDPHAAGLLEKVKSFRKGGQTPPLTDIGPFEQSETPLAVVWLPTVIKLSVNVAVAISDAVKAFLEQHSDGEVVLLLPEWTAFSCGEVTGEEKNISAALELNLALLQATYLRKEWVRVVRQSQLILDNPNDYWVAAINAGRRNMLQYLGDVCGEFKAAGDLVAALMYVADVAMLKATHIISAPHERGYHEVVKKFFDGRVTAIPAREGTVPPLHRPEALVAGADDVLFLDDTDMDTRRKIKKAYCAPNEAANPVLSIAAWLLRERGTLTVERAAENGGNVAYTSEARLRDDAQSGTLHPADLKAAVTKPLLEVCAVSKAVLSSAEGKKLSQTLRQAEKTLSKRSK
Experiment: Trypanosoma cruzi tyrosyl tRNA synthetase (TcYRS) SOP
Assay type: functional
Set-up: scale not given: direction of the effect not stated beside the values
Details: 30 µM
readout.kind: Percent Effect (%)
Number only, in %; omit the unit.

Examples with their reported Percent Effect follow.
CC(C)c1noc(C(C)N2CCN(Cc3ccccc3C#N)CC2)n1 (stereo unspecified) :: 3.7
Cc1cc(C)n(CC(=O)N2CCC(NS(=O)(=O)c3ccccc3)CC2)n1 :: 7.32
Cc1nn(C)c(C)c1C1CCCN1Cc1noc(C2CC2)n1 (stereo unspecified) :: 6.17
Cc1nnc2n1CCN(C(=O)c1cc(Cl)c(Cl)n1C)C2 :: 7.32
CS(=O)(=O)N1CCOCC2(CCN(C(=O)c3cccnc3)CC2)C1 :: 3.7

# input for lookup
Percent Effect measured on `O=C(Nc1cccc(CNCc2csc(Br)c2)c1)C1CC1` = 25.9
